System: Human keratinocytes
Assay: Cell counting after 7 day peptide treatment
Assay type: cell-based
Conditions: keratinocyte, modified peptides, conc 10 µM, start count 10
Assay readout: Cell Count 7 d

[[record]]
chain_sequence = "TTGGSSPQGLEAKRPKKRKVRRRKMQQLEQMLTALDQMRRSIVSELAGLLS [STAT3-int1M]"
test_result = 41

[[record]]
chain_sequence = "TTGGSSPQGLEAKRPKKRKVRRRQLMLEPYALDMSRIRVLSESLGLATQSG [Scr-int1M, reference compound]"
test_result = 40

[[record]]
chain_sequence = "TTGGSSPQGLEAKRPKKRKVRRRVKRPMNAFMVWAQAARRKLADQY [SOX10-int1M]"
test_result = 37

[[record]]
chain_sequence = "TTGGSSPQGLEAKRPKKRKVRRRFNINDRIKELGTLIPKSNDPDMRWN [MITF-int1M]"
test_result = 38


---

System: WM 266-4
Assay: WST-1 test (mitochondrial activity)
Assay type: cell-based, human
Details: modified peptides, conc 10 µM, untreated = 1
In this section we review reported WST-1 7 d values for a set of sequences.
Assay readout: WST-1 7 d

[[record]]
chain_sequence = "TTGGSSPQGLEAKRPKKRKVRRRVKRPMNAFMVWAQAARRKLADQY [SOX10-int1M]"
test_result = 0.7

[[record]]
chain_sequence = "TTGGSSPQGLEAKRPKKRKVRRRFNINDRIKELGTLIPKSNDPDMRWN [MITF-int1M]"
test_result = 0.8

[[record]]
chain_sequence = "TTGGSSPQGLEAKRPKKRKVRRRQLMLEPYALDMSRIRVLSESLGLATQSG [Scr-int1M, reference compound]"
test_result = 1

[[record]]
chain_sequence = "TTGGSSPQGLEAKRPKKRKVRRRKMQQLEQMLTALDQMRRSIVSELAGLLS [STAT3-int1M]"
test_result = 0.91


---

Test system: B16 melanoma
Experiment: Mouse tumor xenograft model, peptide membrane patch on skin melanoma
Assay type: in vivo
Settings: 2 d; patch immersed in 100 μM peptide solution; start = 100
In this section we review reported tumor size change (%) 2 d values for a set of sequences.
Assay readout: tumor size change (%) 2 d

[[record]]
chain_sequence = "TTGGSSPQGLEAKRPKKRKVRRRFNINDRIKELGTLIPKSNDPDMRWN [MITF-int1M]"
assay_readout = "tumor size change (%) 2 d"
test_result = 135

[[record]]
chain_sequence = "TTGGSSPQGLEAKRPKKRKVRRRQLMLEPYALDMSRIRVLSESLGLATQSG [Scr-int1M, reference compound]"
assay_readout = "tumor size change (%) 2 d"
test_result = 147

[[record]]
chain_sequence = "TTGGSSPQGLEAKRPKKRKVRRRKMQQLEQMLTALDQMRRSIVSELAGLLS [STAT3-int1M]"
assay_readout = "tumor size change (%) 2 d"
test_result = 124

[[record]]
chain_sequence = "TTGGSSPQGLEAKRPKKRKVRRRVKRPMNAFMVWAQAARRKLADQY [SOX10-int1M]"
assay_readout = "tumor size change (%) 2 d"
test_result = 127


---

In this section we review reported Cell Count 7 d values for a set of sequences.
Test system: SK-MEL-28
Assay: Cell counting after 7 day peptide treatment
Format: cell-based, human
Settings: CPP mimicking peptides, conc 10 µM, start count 10
Assay readout: Cell Count 7 d

[[record]]
chain_sequence = "RPKKRKVRRRVKRPMNAFMVWAQAARRKLADQY [SOX10-int1]"
assay_readout = "Cell Count 7 d"
test_result = 28

[[record]]
chain_sequence = "RPKKRKVRRRFNINDRIKELGTLIPKSNDPDMRWN [MITF-int1]"
assay_readout = "Cell Count 7 d"
test_result = 39

[[record]]
chain_sequence = "RPKKRKVRRRKMQQLEQMLTALDQMRRSIVSELAGLLS [STAT3-int1]"
assay_readout = "Cell Count 7 d"
test_result = 40

[[record]]
chain_sequence = "RPKKRKVRRRQLMLEPYALDMSRIRVLSESLGLATQSG [Scr-int1, reference compound]"
assay_readout = "Cell Count 7 d"
test_result = 53


The origin of these recorded values is patent US20060014712A1.
